Here we list compounds with their recorded IC50 when tested on GCN2 (Homo sapiens (Human), UniProt Q9P2K8).
Sequence (Q9P2K8 whole entry): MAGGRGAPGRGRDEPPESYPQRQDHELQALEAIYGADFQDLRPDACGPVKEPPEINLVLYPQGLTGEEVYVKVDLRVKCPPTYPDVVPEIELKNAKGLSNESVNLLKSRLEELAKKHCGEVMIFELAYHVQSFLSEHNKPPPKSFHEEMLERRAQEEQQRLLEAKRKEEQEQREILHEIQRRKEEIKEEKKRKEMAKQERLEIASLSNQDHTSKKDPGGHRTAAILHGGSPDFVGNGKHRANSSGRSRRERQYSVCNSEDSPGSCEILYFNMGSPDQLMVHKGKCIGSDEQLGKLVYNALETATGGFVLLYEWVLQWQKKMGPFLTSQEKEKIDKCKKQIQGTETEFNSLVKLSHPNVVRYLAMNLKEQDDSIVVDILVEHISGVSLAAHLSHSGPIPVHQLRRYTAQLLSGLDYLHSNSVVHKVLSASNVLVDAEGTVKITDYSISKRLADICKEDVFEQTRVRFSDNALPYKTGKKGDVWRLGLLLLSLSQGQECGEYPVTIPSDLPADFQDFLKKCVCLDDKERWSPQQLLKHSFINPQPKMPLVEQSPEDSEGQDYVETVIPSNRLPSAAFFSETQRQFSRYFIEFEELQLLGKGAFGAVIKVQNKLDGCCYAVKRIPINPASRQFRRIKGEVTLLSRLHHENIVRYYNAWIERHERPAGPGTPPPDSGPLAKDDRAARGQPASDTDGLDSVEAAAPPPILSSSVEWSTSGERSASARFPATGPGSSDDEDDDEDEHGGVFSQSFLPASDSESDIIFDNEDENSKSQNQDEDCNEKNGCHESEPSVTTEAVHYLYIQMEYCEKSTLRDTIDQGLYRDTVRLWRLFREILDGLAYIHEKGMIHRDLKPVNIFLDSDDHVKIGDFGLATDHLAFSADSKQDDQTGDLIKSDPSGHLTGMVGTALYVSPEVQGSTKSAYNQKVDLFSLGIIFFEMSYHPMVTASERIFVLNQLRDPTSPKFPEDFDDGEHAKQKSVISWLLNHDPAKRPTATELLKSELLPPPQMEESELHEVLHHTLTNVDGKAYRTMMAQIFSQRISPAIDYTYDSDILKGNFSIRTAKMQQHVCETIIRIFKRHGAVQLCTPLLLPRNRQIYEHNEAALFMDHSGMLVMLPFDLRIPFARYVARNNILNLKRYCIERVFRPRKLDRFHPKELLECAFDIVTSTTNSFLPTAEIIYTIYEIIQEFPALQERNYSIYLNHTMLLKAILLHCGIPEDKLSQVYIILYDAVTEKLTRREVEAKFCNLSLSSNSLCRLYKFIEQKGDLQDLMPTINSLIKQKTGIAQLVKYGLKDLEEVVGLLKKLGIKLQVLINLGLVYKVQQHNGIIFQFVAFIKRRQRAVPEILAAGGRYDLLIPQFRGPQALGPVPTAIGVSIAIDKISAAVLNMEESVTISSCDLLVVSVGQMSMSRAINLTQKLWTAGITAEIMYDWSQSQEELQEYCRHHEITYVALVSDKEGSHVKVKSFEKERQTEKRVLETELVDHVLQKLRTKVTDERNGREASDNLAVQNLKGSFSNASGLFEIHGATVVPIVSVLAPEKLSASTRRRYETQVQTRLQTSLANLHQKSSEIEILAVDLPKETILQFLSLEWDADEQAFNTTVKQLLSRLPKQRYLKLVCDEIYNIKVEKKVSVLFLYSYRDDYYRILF
Observable: IC50

Cc1cnc(Nc2cc(C)n(C)n2)nc1-c1c[nH]c2c(N3Cc4c(cccc4-c4ccc5c(c4)CCC5)C3=O)cccc12
100 to 1000 nM
Cc1cnc(Nc2cc(C)n(C)n2)nc1-c1c[nH]c2c(N3Cc4c(cccc4-c4cnc(N)nc4)C3=O)cccc12
< 10 nM
Cc1cc(Nc2nccc(-c3c[nH]c4c(NC(=O)CN5CC[C@H](Oc6cc(NC7CC7)ncn6)C5)cccc34)n2)nn1C
< 10 nM
Cc1cnc(Nc2cc(C)n(C)n2)nc1-c1c[nH]c2c(N3Cc4c(NC(=O)C5(C)CCOCC5)cccc4C3=O)cccc12
< 10 nM
Cc1cnccc1-c1nccc2c1CN(c1cccc3c(-c4nc(Nc5cc(C)n(C)n5)ncc4C)c[nH]c13)C2=O
< 10 nM
Cc1cnc(Nc2cc(C)n(C)n2)nc1-c1c[nH]c2c(NC(=O)CN3C[C@@H](Oc4ccnc(NC5CC5)n4)C[C@H]3C(N)=O)cccc12
< 10 nM
Cc1cnc(Nc2cc(C)n(C)n2)nc1-c1c[nH]c2c(N3Cc4cccc(-c5ccccc5)c4C3=O)cccc12
10 to 100 nM
Cc1cnc(Nc2cc3n(n2)CCC3)nc1-c1c[nH]c2c(NC(=O)CN3CC[C@H](Oc4ccnc(NC5CC5)n4)C3)cccc12
< 10 nM
Cc1cnc(Nc2cc(C)n(C)n2)nc1-c1c[nH]c2c(NC(=O)CN3CC[C@H](Oc4ccnc(N5CCN(C)CC5)n4)C3)cccc12
< 10 nM
Cc1cnc(Nc2cc(C)n(C)n2)nc1-c1c[nH]c2c(NC(=O)CN3CC[C@H](Oc4cc(NCCO)ncn4)C3)cccc12
< 10 nM
CCN(C)c1cc(O[C@H]2CCN(CC(=O)Nc3cccc4c(-c5nc(Nc6cc(C)n(C)n6)ncc5C)c[nH]c34)C2)ncn1
< 10 nM
Cc1cnc(Nc2cc(C)n(C)n2)nc1-c1c[nH]c2c(NC(=O)CN3CC[C@H](Oc4cc(N5CC[C@@H](O)C5)ncn4)C3)cccc12
< 10 nM
Cc1cnc(Nc2cc(C)n(C)n2)nc1-c1c[nH]c2c(NC(=O)CN3CC[C@H](Oc4ncnc(Cl)c4C)C3)cccc12
10 to 100 nM
COCCNc1nccc(O[C@H]2CCN(CC(=O)Nc3cccc4c(-c5nc(Nc6cc(C)n(C)n6)ncc5C)c[nH]c34)C2)n1
< 10 nM
Cc1cnc(Nc2cc(C)n(C)n2)nc1-c1c[nH]c2c(NC(=O)CN3C[C@@H](Oc4ccnc(NC5CC5)n4)CC3=O)cccc12
< 10 nM
Cc1cnc(Nc2cc(C)n(C)n2)nc1-c1c[nH]c2c(N3Cc4c(C5=CCNCC5)ccnc4C3=O)cccc12
< 10 nM
Cc1cnc(Nc2cc(C)n(C)n2)nc1-c1c[nH]c2c(NC(=O)CN3CC[C@H](Oc4ccccn4)C3)cccc12
10 to 100 nM
Cc1cnc(Nc2cc(C)n(C)n2)nc1-c1c[nH]c2c(NC(=O)CN3CC[C@H](Oc4cc(C(F)(F)F)nc(NC5CC5)n4)C3)cccc12
10 to 100 nM
Cc1cnc(Nc2cc(C)n(C)n2)nc1-c1c[nH]c2c(NC(=O)CN3CC[C@@H](C(=O)N4CCOCC4)C3)cccc12
100 to 1000 nM
Cc1cnc(Nc2cc(C)n(C)n2)nc1-c1c[nH]c2c(N3Cc4c(cccc4-c4cnn(CC5CC5)c4)C3=O)cccc12
< 10 nM
Cc1cnc(Nc2cc(C)n(C)n2)nc1-c1c[nH]c2c(NC(=O)CN3CC[C@H](Oc4ccnc(NCCF)n4)C3)cccc12
< 10 nM
CCCNc1nccc(O[C@H]2CCN(CC(=O)Nc3cccc4c(-c5nc(Nc6cc(C)n(C)n6)ncc5C)c[nH]c34)C2)n1
< 10 nM
Cc1cnc(Nc2cc(C)n(C)n2)nc1-c1c[nH]c2c(NC(=O)CN3CC[C@H](O)C3)cccc12
10 to 100 nM
Cc1cnc(Nc2cc(C)n(C)n2)nc1-c1c[nH]c2c(N3Cc4c(NC(=O)C5CCCC(C)C5)cccc4C3=O)cccc12 (centres unmarked)
100 to 1000 nM
Cc1cnc(Nc2cc(C)n(C)n2)nc1-c1c[nH]c2c(N3Cc4c(cccc4-c4cnn(CCN5CCOCC5)c4)C3=O)cccc12
< 10 nM
Cc1cnc(Nc2cc(C)n(C)n2)nc1-c1c[nH]c2c(N3Cc4c(NC(=O)C5CCCNC5)cccc4C3=O)cccc12 (centres unmarked)
< 10 nM
